Assay: qHTS Assay for Inhibitors of the ERK Signaling Pathway using a Homogeneous Screening Assay; further: nearly all actives have a fitted effect of over 55% in size; on activity, negative = inhibition: on the % scale 0 is the no-effect control and ±100 the full control effect
Settings: HEK293-V1b, vasopressin-stimulated pERK AlphaScreen; series mostly up to 57.5 µM
The whole screen tested about 72,000 compounds, of which about 710 (0.99%) were called active. Inconclusive results (about 7%) are left out. The sample holds actives, similar compounds and a random draw of the others, so the mix is not that of the screen.
ATTRIBUTE MEASURED: activity, negative = inhibition

Examples from the recorded data:
> print(dat)
                        compound                    test.value
1  c1ccc(CCN2CCN=C2Cc2ccccc2)cc1  9.2% [at 11.5 µM] (inactive)
2                  NCCNCC1CCNCC1  -16% [at 11.5 µM] (inactive)

Data request, read-out activity, negative = inhibition, for C=CCOC(=O)C(C(C)=O)C(NC(=O)OC)c1ccccc1 (stereo unspecified) 29.5% [at 11.5 µM] (inactive)

Data request, read-out activity, negative = inhibition, for COC(=O)NC(c1ccccc1)[C@]1(C(C)=O)CCCC1=O (stereo partly specified) -3.18% [at 11.5 µM] (inactive)

Data request, read-out activity, negative = inhibition, for Oc1c(CN2CCOCC2)ccc(CN2CCOCC2)c1O -4.14% [at 11.5 µM] (inactive)

Data request, read-out activity, negative = inhibition, for C[C@@H](N)[C@@H](C)Cc1ccccc1 -2.1% [at 11.5 µM] (inactive)

====

Assay: qHTS Assay for Inhibitors of the ERK Signaling Pathway using a Homogeneous Screening Assay; further: nearly all actives have a fitted effect of over 55% in size
Conditions: HEK293-V1b, vasopressin-stimulated pERK AlphaScreen; series mostly up to 57.5 µM
The campaign covered roughly 72,000 compounds. About 710 (0.99%) were called active. Not shown: some 7% with an inconclusive outcome. The call rests on the fitted dose curve; in most records, active means well fitted inhibition curve with a large enough effect; inconclusive means small, poorly fitted or top-dose-only effect; inactive means no such curve, though single readings can be large or run the other way. Many of the other results were omitted from the sample, so actives are more common in it than they were.
Pick one and only one: active, inactive

> print(dat)
                                   molecule  class.name
1  CC1OC(OCC2OC(Oc3c(-c4ccc(O)c(O)c4)oc4cc(O)cc(O)c4c3=O)C(O)C(O)C2O)[C@@H](O)C(O)C1O (stereo partly specified)    inactive

What call does the record list for COCc1[nH]nc2c1C(C1C=CCCC1)C(C#N)=C(N)O2 (stereo unspecified) ? inactive

What call does the record list for Cn1cccc1C(=O)N1CCC2(CC1)CN(c1cccc(-c3ccccc3)c1)C2 ? inactive

What call does the record list for O=C(O)C(O)[C@@](O)(Cc1ccc(O)cc1)C(=O)O (stereo partly specified) ? inactive

What call does the record list for COc1ccc(OC)c(NC(=O)CSc2nc3cccnc3n2C)c1 ? active

====

Assay: qHTS Assay for Inhibitors of the ERK Signaling Pathway using a Homogeneous Screening Assay; further: nearly all actives have a fitted effect of over 55% in size
Settings: HEK293-V1b, vasopressin-stimulated pERK AlphaScreen; series mostly up to 57.5 µM
In all, about 72,000 compounds went through this assay and about 710 (0.99%) were called active. Not shown: some 7% with an inconclusive outcome. Calls come from the whole dose curve; as a rule, active = well fitted inhibition curve with a large enough effect; inconclusive = small, poorly fitted or top-dose-only effect; inactive = no such curve, though single readings can be large or run the other way. What follows is part of a selection rich in actives, with near analogues and random picks from the rest.
Pick one and only one: True (active), False (inactive)

> print(dat)
                                   compound  class.name
1         Cc1ccccc1NC(=O)CNc1ccccc1N1CCCCC1       False
2   Cc1ccc(-c2nn(CC(C)(C)C)c3ncnc(N)c23)cc1        True
3  O=C(CN1CCN(C2CCCCC2)CC1)Nc1ccccc1N1CCCCC1        True
4      Nc1nc2[nH]c(=O)c(=O)[nH]c2c(=O)[nH]1       False

What call does the record list for CN(C)CCc1c[nH]c2ccc(Cn3cncn3)cc12 ? False

What call does the record list for Cc1noc(C)c1-c1nc(Nc2ccccc2)c2ccccc2n1 ? False

What call does the record list for Cc1ccnc(-n2sc3ccccc3c2=O)n1 ? True

What call does the record list for CC1(C)OC2CC3C4CCC5=CC(=O)CCC5(C)C4(F)C(O)CC3(C)[C@]2(C(=O)CCl)O1 (some centres not stated) ? False

What call does the record list for COCCn1c(=O)c(-c2cc(F)cc(F)c2)nc2cncnc21 ? False

What call does the record list for Cc1nc2ccccc2c(=O)n1CCCn1ccnc1 ? False

What call does the record list for COc1cccc(-c2nc(Nc3ccncc3)c3ccccc3n2)c1 ? True

What call does the record list for O=C(NCCCN1CCN(C2CCCCC2)CC1)Nc1ccccc1C(F)(F)F ? False

====

Assay: qHTS Assay for Inhibitors of the ERK Signaling Pathway using a Homogeneous Screening Assay; further: nearly all actives have a fitted effect of over 55% in size
Conditions: HEK293-V1b, vasopressin-stimulated pERK AlphaScreen; series mostly up to 57.5 µM
Out of some 72,000 compounds screened, about 710 (0.99%) were called active. Inconclusive results (about 7%) are left out. Calls come from the whole dose curve; as a rule, active = well fitted inhibition curve with a large enough effect; inconclusive = small, poorly fitted or top-dose-only effect; inactive = no such curve, though single readings can be large or run the other way. The full list was thinned out, with actives kept by preference.
Pick one and only one: class 1 (active), class 0 (inactive)

What call does the record list for CCC1=C(OC(=O)N(CC)CC)N2C(=O)OC(=NCC3CC3)[C@]2(C)[C@H]2C1=CC[C@H]1C(=O)N(CC(=O)OC)C(=O)[C@H]12 ? class 0

What call does the record list for CCOC(=O)c1cnc(SCC(=O)NCc2ccco2)nc1N ? class 1

What call does the record list for CCOc1ccccc1-n1c(SCC(=O)NCc2ccco2)nnc1-c1ccncc1 ? class 0

What call does the record list for CC(C)=CC1C(C(=O)O)C1(C)C (stereo unspecified) ? class 0

What call does the record list for COCCn1c(=O)c(-c2cccc(F)c2)nc2cncnc21 ? class 0

What call does the record list for COc1ccccc1OCCNCC(O)COc1cccc2[nH]c3ccccc3c12 (stereo unspecified) ? class 0

What call does the record list for FC(F)(F)c1ccccc1-c1cc(NCc2ccccc2)ncn1 ? class 0

What call does the record list for C=C[C@](C)(O)CCC1C(=C)CCC2[C@@](C)(CO)CCC[C@@]12C (stereo partly specified) ? class 0

What call does the record list for Cc1nc2nc(SCC(=O)NCc3ccco3)nn2c(C)c1Cc1ccccc1 ? class 0

What call does the record list for CN1CC(=O)N=C1N ? class 0

What call does the record list for COc1ccccc1CNc1cc(-c2ccccc2CN(C)C)ncn1 ? class 0

====

Assay: qHTS Assay for Inhibitors of the ERK Signaling Pathway using a Homogeneous Screening Assay; further: nearly all actives have a fitted effect of over 55% in size; on activity, negative = inhibition: on the % scale 0 is the no-effect control and ±100 the full control effect
Details: HEK293-V1b, vasopressin-stimulated pERK AlphaScreen; series mostly up to 57.5 µM
The campaign covered roughly 72,000 compounds. About 710 (0.99%) were called active. Inconclusive results (about 7%) are left out. For the sample, actives were picked, then their nearest neighbours and some compounds at random.
activity, negative = inhibition reference

Examples from the recorded data:
> print(dat)
                                   compound                       test.value
1  CC1(C)OC(C(O)(c2ccccc2)c2ccccc2)C(C(O)(c2ccccc2)c2ccccc2)O1 (centres undefined)    31.6% [at 11.5 µM] (inactive)
2  CO[C@H]1COC(=O)[C@@H](OCc2ccccc2)/C=C\[C@H](C)[C@@H](OC)COC(=O)[C@H](OCc2ccccc2)/C=C\[C@@H]1C      30% [at 11.5 µM] (inactive)
3     S=c1c2[nH]cnc2ncn1CCSc1ncnc2nc[nH]c12  -0.588% [at 11.5 µM] (inactive)
4  Cc1ccc2nc(CC(=O)c3ccc4ccccc4c3)c(=O)[nH]c2c1    3.17% [at 11.5 µM] (inactive)

Data request, read-out activity, negative = inhibition, for Cc1cc(OCC(=O)O)c(Cl)cc1Cl -16.5% [at 11.5 µM] (inactive)

Data request, read-out activity, negative = inhibition, for CC(C)CO/N=C1/C[C@@H](O)[C@@H](O)[C@@H]2[C@@H]3C(=O)N(C[C@@H]4CCCO4)C(=O)[C@H]3CC[C@@H]12 8.6% [at 11.5 µM] (inactive)

Data request, read-out activity, negative = inhibition, for O=C(O)c1nn(-c2ccc(Cl)cc2)c2c1C(=O)c1ccccc1C2=O -10.9% [at 11.5 µM] (inactive)

Data request, read-out activity, negative = inhibition, for O=C(O)CS(=O)c1ccc2c3c(cccc13)C(=O)c1ccccc1-2 (centres undefined) 22.7% [at 11.5 µM] (inactive)

Data request, read-out activity, negative = inhibition, for CO[C@H]1COC(=O)C/C=C\[C@H](C)COC(=O)[C@@H](OCc2ccccc2)/C=C\[C@@H]1C 0.999% [at 11.5 µM] (inactive)

====

Assay: qHTS Assay for Inhibitors of the ERK Signaling Pathway using a Homogeneous Screening Assay; further: nearly all actives have a fitted effect of over 55% in size; further: potency means the concentration at half of the fitted maximal effect
Conditions: HEK293-V1b, vasopressin-stimulated pERK AlphaScreen; series mostly up to 57.5 µM
About 710 (0.99%) of roughly 72,000 compounds were called active. Inconclusive results (about 7%) are left out. The entries come from a sample that favours actives as a whole.
ATTRIBUTE MEASURED: Potency

> print(dat)
                                   compound  attribute.measured        test.value
1      COc1ccccc1-c1nnc(SCC(=O)Nc2ccccc2)o1             Potency  25.1 µM (active)
2  COc1ccc(OC)c(NC(=O)CSc2nc(N)c(-c3ccccc3)c(=O)[nH]2)c1             Potency          inactive
3  COc1cc(OC)c2c(c1Cl)OC1(C2=O)C(O)=CC(=O)CC1C (stereo unspecified)             Potency          inactive
4  COC(=O)[C@@H]1C[C@@]2(O)[C@H](O)[C@H](O)[C@H](O)C[C@H]2N1Cc1ccc(C)s1             Potency          inactive
5  Cc1ccc(OCC(=O)Nc2ccc(-c3nnc(-c4ccco4)o3)cc2)cc1             Potency          inactive

Data request, read-out Potency, for Cc1ccc(S(=O)(=O)NC(=O)NN2C[C@H]3CCC[C@@H]3C2)cc1 inactive

Data request, read-out Potency, for COc1ccc(C[C@H](N)C(=O)N[C@@H]2[C@H](O)[C@H](n3cnc4c(N(C)C)ncnc43)O[C@@H]2CO)cc1 inactive

Data request, read-out Potency, for N#C/C(=C\c1ccc(O)c(O)c1)C(N)=O inactive

Data request, read-out Potency, for Cc1cc(C)cc(N)c1 inactive

Data request, read-out Potency, for c1ccc(COc2nsnc2N2CCOCC2)cc1 25.1 µM (active)

Data request, read-out Potency, for COC(=O)C1=C(C)NC2=C(C(=O)c3ccccc32)C1c1ccc(-c2ccc(C(=O)O)cc2)o1 (stereo unspecified) 25.1 µM (active)

Data request, read-out Potency, for COc1ccc(CC(=O)Nc2ccc(-c3nnc(-c4ccccc4)o3)cc2)cc1 inactive

Data request, read-out Potency, for FC(F)(F)c1ccc(CN2C[C@@H]3C(c4ccccc4)C4(c5ccccc5)CC3(C4)[C@H]2c2ccccc2)cc1 (stereo partly specified) inactive

Data request, read-out Potency, for COC(=O)[C@@H]1C[C@@]2(O)[C@H](O)[C@H](O)[C@H](O)C[C@H]2N1Cc1ccc(C(C)(C)C)cc1 inactive

Data request, read-out Potency, for O=C(O)COc1nsnc1N1CCOCC1 inactive

Data request, read-out Potency, for COc1ccccc1-c1nnc(SCC(=O)Nc2cc(C)on2)o1 inactive
